Listed here: items and their measured IC50.
target: recombinant BRD4 BD2 (Homo sapiens, UniProt O60885); construct: for recombinant BRD4 BD1 and BRD4 BD2 proteins; experiment: Competitive fluorescence-polarization (FP) binding assay, BRD4 BD2; settings: competitive FP assay; protein 6 nM, probe […]; read-out: IC50 (nM) BRD4 BD2; as to IC50 (nM) BRD4 BD2: probe 1.5 nM
Write the value in nM as a bare number.

Reported IC50 of CCn1cc(Nc2nc(C)nc3[nH]c4cc(-c5c(C)noc5C)c(OC)cc4c23)c(C(C)C)n1 : 14.5

Reported IC50 of COc1cc2c(cc1-c1c(C)noc1C)[nH]c1nc(C)nc(Nc3c(C)cnn3C)c12 : 23.7

Reported IC50 of COc1cc2c(cc1-c1c(C)noc1C)[nH]c1nc(C)nc(Sc3nnc(C)n3C(C)C)c12 : 183

Reported IC50 of COc1cc2c(cc1-c1c(C)noc1C)[nH]c1nc(C)nc(Nc3[nH]ncc3C(C)C)c12 : 39.4

---

biological target: recombinant BRD4 BD2 (Homo sapiens, UniProt O60885); construct: for recombinant BRD4 BD1 and BRD4 BD2 proteins; assay: Competitive fluorescence-polarization (FP) binding assay, BRD4 BD2; conditions: competitive FP assay; protein 6 nM, probe […]; read-out: IC50 (nM) BRD4 BD2; as to IC50 (nM) BRD4 BD2: probe 1.5 nM
Quick rule for you: IC50 under 50 nM gets label 1, anything else gets label 0.

[[record]]
smiles_code = "COc1cc2c(cc1-c1c(C)noc1C)[nH]c1nc(C)nc(Nc3cccc(Cl)c3)c12"
measured_on = "recombinant BRD4 BD2 (Homo sapiens, UniProt O60885)"
category_label = "label 1"


Exercise: Bench note: check whether COc1cc2c(cc1-c1c(C)noc1C)[nH]c1nc(C)nc(Nc3ccc4cc[nH]c4c3)c12 shows IC50 below 50 nM
Solution: label 1

Exercise: Bench note: check whether COc1cc2c(cc1-c1c(C)noc1C)[nH]c1nc(C)nc(Nc3cc(C)nn3C3CC3)c12 shows IC50 below 50 nM
Solution: label 0

Exercise: Bench note: check whether CCc1nn(C)c(CC)c1Nc1nc(C)nc2[nH]c3cc(-c4c(C)noc4C)c(OC)cc3c12 shows IC50 below 50 nM
Solution: label 1

Exercise: Bench note: check whether CCn1nc(C)c(C)c1Nc1nc(C)nc2[nH]c3cc(-c4c(C)noc4C)c(OC)cc3c12 shows IC50 below 50 nM
Solution: label 0

Exercise: Bench note: check whether COc1cc2c(cc1-c1c(C)noc1C)[nH]c1nc(C)nc(Nc3onc(C)c3C)c12 shows IC50 below 50 nM
Solution: label 0

Exercise: Bench note: check whether COc1cc2c(cc1-c1c(C)noc1C)[nH]c1nc(C)nc(Nc3ccc4c(c3)N(C)CC4)c12 shows IC50 below 50 nM
Solution: label 0

Exercise: Bench note: check whether COc1cc2c(cc1-c1c(C)noc1C)[nH]c1ccnc(Nc3cc(C4CC4)nn3C)c12 shows IC50 below 50 nM
Solution: label 1

Exercise: Bench note: check whether COc1cc2c(cc1-c1c(C)noc1C)[nH]c1nc(C)nc(NC3CCCC3)c12 shows IC50 below 50 nM
Solution: label 0

---

biological target: recombinant BRD4 BD2 (Homo sapiens); construct: for recombinant BRD4 BD1 and BRD4 BD2 proteins; experiment: Competitive fluorescence-polarization (FP) binding assay, BRD4 BD2; conditions: FP competitive binding, BRD4 BD2; read-out: Binding affinities (FP) BRD4BD2 IC50
Listed here: items and their measured IC50.
Form entry: enter the amount, then its unit.

# annotated cases, reported IC50 shown
[[record]]
smiles_code = "COc1cc2c(cc1-c1c(C)noc1C)[nH]c1nc(C)nc(Nc3cc(C4CC4)nn3CCN3CCOCC3)c12"
recorded_value = "10.6 nM"

[[record]]
smiles_code = "CCn1nc(C2CC2)cc1Nc1nccc2[nH]c3cc(-c4c(C)noc4C)c(OC)cc3c12"
recorded_value = "9.8 nM"

[[record]]
smiles_code = "COc1nc2c(cc1-c1c(C)noc1C)[nH]c1nc(C)nc(Nc3c(C)cnn3C(C)C)c12"
recorded_value = "346 nM"


Reported IC50 of COc1nc2c(cc1-c1c(C)noc1C)[nH]c1nc(C)nc(N(C)c3cc(C(C)(C)C)nn3C)c12 : 16 nM

---

Listed here: items and their measured IC50.
Test system: MDA-MB-436
Assay: Cell growth inhibition, MDA-MB-436 breast cancer cells (WST-8)
Assay type: cell-based
Conditions: Homo sapiens, MDA-MB-436, 96 h; 4 days; read-out: IC50 (nM) MDA-MB-436 Cell Line (WST assay)
Protocol: All the breast cancer cell lines were obtained from the ATCC. Cell viability was determined using the WST-8 (2-(2-methoxy-4-nitrophenyl)-3-(4-nitrophenyl)-5-(2,4-disulfophenyl)-2H-tetrazolium, monosodium salt) based Cell Counting-8 Kit (Dojindo Molecular Technologies, Inc., Rockville, Md.) according to the manufacture's instruction. […] The absorbance was measured at 450 nm using a SPECTRAmax PLUS plate reader (Molecular Devices, Sunnyvale, Calif.). […]
Write the value in nM as a bare number.

Query COc1cc2c(cc1-c1c(C)noc1C)[nH]c1nc(C)nc(Nc3cccc4c3cnn4C)c12 [Cpd. No. 235] on MDA-MB-436; IC50 returned: 146

Query COc1cc2c(cc1-c1c(C)noc1C)[nH]c1nc(C)nc(Nc3c(C(C)C)nn(C)c3C)c12 [Cpd. No. 194] on MDA-MB-436; IC50 returned: 59.6

Query COc1cc2c(cc1-c1c(C)noc1C)[nH]c1nc(C)nc(Nc3cc(C4CC4)nn3C)c12 [Cpd. No. 121] on MDA-MB-436; IC50 returned: 11.2

Query COc1cc2c(cc1-c1c(C)noc1C)[nH]c1nc(C)nc(Nc3cc(C)ccn3)c12 [Cpd. No. 110] on MDA-MB-436; IC50 returned: 354

Query COc1cc2c(cc1-c1c(C)noc1C)[nH]c1nc(C)nc(Nc3cc(C)nn3C3CCCC3)c12 [Cpd. No. 118] on MDA-MB-436; IC50 returned: 25

Query CCn1nccc1Nc1nc(C)nc2[nH]c3cc(-c4c(C)noc4C)c(OC)cc3c12 [Cpd. No. 173] on MDA-MB-436; IC50 returned: 198

Query COc1cc2c(cc1-c1c(C)noc1C)[nH]c1nc(C)nc(Nc3ccnc4ccccc34)c12 [Cpd. No. 247] on MDA-MB-436; IC50 returned: 115

Query COc1cc2c(cc1-c1c(C)noc1C)[nH]c1nc(C)nc(Nc3cc(C)nn3C)c12 [Cpd. No. 8] on MDA-MB-436; IC50 returned: 55.1

---

test system: MOLM-13; test: Cell growth inhibition, MOLM-13 leukemia cells (CellTiter-Glo); type: cell-based; settings: Homo sapiens, MOLM-13, 96 h; 4 days; read-out: IC50 (nM) MOLM-13 Cell Line (CellTiter-Glo assay)
Result Type: IC50
Form entry: enter the amount, then its unit.

[[record]]
compound = "COc1cc2c(cc1-c1c(C)noc1C)[nH]c1nc(C)nc(Nc3cc(C)cc(C)c3)c12 [Cpd. No. 237]"
result_type = "IC50"
recorded_value = "41 nM"

[[record]]
compound = "COc1cc2c(cc1-c1c(C)noc1C)[nH]c1nc(C)nc(Nc3cn(C)nc3C3CCC3)c12 [Cpd. No. 200]"
result_type = "IC50"
recorded_value = "25.4 nM"

[[record]]
compound = "COc1cc2c(cc1-c1c(C)noc1C)[nH]c1nc(C)nc(Nc3cccc4nc(C)ccc34)c12 [Cpd. No. 228]"
result_type = "IC50"
recorded_value = "87 nM"


Note: attention shifts to another entry.
Reported IC50 of COc1cc2c(cc1-c1c(C)noc1C)[nH]c1nc(C)nc(Nc3cnc(C)n3C)c12 [Cpd. No. 171] : 609 nM

---

system: MOLM-13; experiment: Cell growth inhibition, MOLM-13 leukemia cells (CellTiter-Glo); format: cell-based; settings: Homo sapiens, MOLM-13, 96 h; 4 days; read-out: IC50 (nM) MOLM-13 Cell Line (CellTiter-Glo assay)
Quick rule for you: IC50 under 40 nM gets 1.0, anything else gets 0.0.

[[record]]
smiles_code = "COc1cc2c(cc1-c1c(C)noc1C)[nH]c1nc(C)nc(Nc3c(C)c(C)nn3C3CCC3)c12"
category_label = 1.0

[[record]]
smiles_code = "COc1cc2c(cc1-c1c(C)noc1C)[nH]c1nc(C)nc(Nc3ccnn3C)c12"
category_label = 0.0

[[record]]
smiles_code = "COc1cc2c(cc1-c1c(C)noc1C)[nH]c1nc(C)nc(Nc3cnccc3C)c12"
category_label = 1.0

[[record]]
smiles_code = "COc1cc2c(cc1-c1c(C)noc1C)[nH]c1nc(C)nc(Nc3c4c(nn3C)CCCC4)c12"
category_label = 1.0

[[record]]
smiles_code = "COc1cc2c(cc1-c1c(C)noc1C)[nH]c1nc(C)nc(Nc3c(C#N)cnn3C)c12"
category_label = 0.0


Exercise: Bench note: check whether COc1cc2c(cc1-c1c(C)noc1C)[nH]c1nc(C)nc(Nc3nn(C)c4ccccc34)c12 shows IC50 below 40 nM
Solution: 1.0

Exercise: Bench note: check whether COc1cc2c(cc1-c1c(C)noc1C)[nH]c1nc(C)nc(Nc3c(C)c(C)nn3C(C)C)c12 shows IC50 below 40 nM
Solution: 1.0

Exercise: Bench note: check whether COc1cc2c(cc1-c1c(C)noc1C)[nH]c1nc(C)nc(Nc3cn(C)nc3C(C)C)c12 shows IC50 below 40 nM
Solution: 1.0

Exercise: Bench note: check whether CCc1cccc(Nc2nc(C)nc3[nH]c4cc(-c5c(C)noc5C)c(OC)cc4c23)c1 shows IC50 below 40 nM
Solution: 0.0

Exercise: Bench note: check whether COc1cc2c(cc1-c1c(C)noc1C)[nH]c1nc(C)nc(Nc3cncc(Cl)c3)c12 shows IC50 below 40 nM
Solution: 0.0

Exercise: Bench note: check whether COc1cc2c(cc1-c1c(C)noc1C)[nH]c1nc(C)nc(Oc3cncc(Br)c3)c12 shows IC50 below 40 nM
Solution: 0.0
